- study-system: UniProt Q7Z3E1
- assay-name: PARP7 TR-FRET assay (binding, displacement of biotinylated Probe A)
- run-conditions: 6 nM PARP7, 2 nM Probe A, 25° C., 30 min
Parameter: IC50. Scope: all listed entries.

- compound: "C[C@@H]1CN(C(=O)c2cccc(Oc3n[nH]c(=O)c(C(F)(F)F)c3N3CC4(C3)CC(F)(F)C4)c2)CCN1c1ncc(C#N)cn1"
  attribute-measured: "IC50"
  meas-value: "< 100 nM"
- compound: "COC[C@@H]1C[C@H](OCC(=O)N2CCN(c3ncc(C(F)(F)F)cn3)CC2)c2n[nH]c(=O)c(C(F)(F)F)c2O1"
  attribute-measured: "IC50"
  meas-value: "100 to 1000 nM"
- compound: "N#Cc1ccc2c(c1)N(c1cc(C(F)(F)F)c(=O)[nH]n1)CC(CC(=O)N1CCN(c3ncc(Cl)cn3)CC1)O2 (single isomer, unassigned)"
  attribute-measured: "IC50"
  meas-value: "< 100 nM"
- compound: "CC1CN(c2c(Oc3cccc(C(=O)N4CCN(c5ncc(C(F)(F)F)cn5)CC4)c3)n[nH]c(=O)c2C(F)(F)F)C1"
  attribute-measured: "IC50"
  meas-value: "< 100 nM"
- compound: "O=C(c1cccc(Oc2n[nH]c(=O)c(C(F)(F)F)c2NC2CC(F)(F)C2)c1)N1CCN(c2ncc(C(F)(F)F)cn2)CC1"
  attribute-measured: "IC50"
  meas-value: "< 100 nM"

Query: Requested read-out: IC50. Entry: O=C(CC1CN(c2n[nH]c(=O)c3ncccc23)CCO1)N1CCN(c2ncc(C(F)(F)F)cn2)CC1 (single isomer, unassigned)
Result: < 100 nM

Query: Further, for O=C(COC1CCOc2c1n[nH]c(=O)c2C1CC1)N1CCN(c2ncc(C(F)(F)F)cn2)CC1 (single isomer, unassigned) [Compound 128] ?
Result: < 100 nM

###

- study-system: PARP7 (Homo sapiens, UniProt Q7Z3E1)
- Sequence (Q7Z3E1 whole entry): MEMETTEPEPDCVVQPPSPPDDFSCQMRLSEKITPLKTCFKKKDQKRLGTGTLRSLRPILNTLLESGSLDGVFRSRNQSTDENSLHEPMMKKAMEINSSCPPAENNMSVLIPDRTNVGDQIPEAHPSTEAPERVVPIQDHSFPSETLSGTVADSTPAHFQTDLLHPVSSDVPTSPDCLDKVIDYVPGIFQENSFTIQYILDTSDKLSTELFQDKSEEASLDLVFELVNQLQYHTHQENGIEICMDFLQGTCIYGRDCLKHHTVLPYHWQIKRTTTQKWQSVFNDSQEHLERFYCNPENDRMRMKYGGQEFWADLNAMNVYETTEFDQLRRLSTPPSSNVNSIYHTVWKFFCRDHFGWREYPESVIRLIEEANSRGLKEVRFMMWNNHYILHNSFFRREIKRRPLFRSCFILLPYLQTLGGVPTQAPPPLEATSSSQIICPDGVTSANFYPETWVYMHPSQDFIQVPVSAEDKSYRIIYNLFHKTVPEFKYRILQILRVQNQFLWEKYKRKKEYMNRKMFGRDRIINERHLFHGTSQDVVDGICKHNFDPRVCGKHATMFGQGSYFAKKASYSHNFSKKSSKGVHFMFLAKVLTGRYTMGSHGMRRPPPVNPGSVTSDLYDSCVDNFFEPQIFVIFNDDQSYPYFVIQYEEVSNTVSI
Parameter: IC50. Scope: all listed entries.

Query: Requested read-out: IC50. Entry: C[C@@H]1CN(c2n[nH]c(=O)c3cccc(F)c23)C[C@@H](CC(=O)N2CCN(c3ncc(C(F)(F)F)cn3)CC2)O1 (stereo in doubt)
Result: 0.1 to 1 µM

Query: Further, for CC(C)(O)c1cnc(N2CCN(C(=O)CC3CN(c4cc(C(F)(F)F)c(=O)[nH]n4)c4cc(Cl)ccc4O3)CC2)nc1 (single isomer, unassigned) ?
Result: < 0.1 µM

Query: Further, for Cc1c(N2CCOc3ccc(C(=O)N4CCN(c5ncc(C(F)(F)F)cn5)CC4)cc32)n[nH]c(=O)c1C(F)(F)F ?
Result: 0.1 to 1 µM

Query: Further, for O=C(c1cccc(Oc2n[nH]c(=O)c(C(F)(F)F)c2N2CC3(CC(F)C3)C2)c1)N1CCN(c2ncc(C(F)(F)F)cn2)CC1 ?
Result: < 0.1 µM

Query: Further, for O=C(CCO[C@H]1CCNc2c1n[nH]c(=O)c2C(F)(F)F)N1CCN(c2ncc(C(F)(F)F)cn2)CC1 (single isomer, unassigned) ?
Result: 0.1 to 1 µM

Query: Further, for C#Cc1ccc2c(=O)[nH]nc(N3CCOC(CC(=O)N4CCN(c5ncc(C(F)(F)F)cn5)CC4)C3)c2c1 (single isomer, unassigned) ?
Result: < 0.1 µM

Query: Further, for O=C(OC1CN(c2cc(C(F)(F)F)c(=O)[nH]n2)CCC1(F)F)N1CCN(c2ncc(C(F)(F)F)cn2)CC1 (single isomer, unassigned) ?
Result: > 1 µM
